assayed-system: human GLP-1 receptor (human, UniProt P43220 24-463)
method-summary: cell-based or functional assay
Where no end group is shown, it is not given here. [ ]: non-standard residue; d: D form. Bip(2'-Et-4'-OMe) = CCc1cc(OC)ccc1-c1ccc(C[C@H](N)C(=O)O)cc1; αMePhe(2,6-F2) = C[C@](N)(Cc1c(F)cccc1F)C(=O)O; αMePhe(2-F) = C[C@](N)(Cc1ccccc1F)C(=O)O; αMeBip(OMe) = alpha-methylated Bip(OMe); hhPhe = N[C@@H](CCCc1ccccc1)C(=O)O; αMeD = C[C@](N)(CC(=O)O)C(=O)O; αMeP = C[C@@]1(C(=O)O)CCCN1; αMeAPPA = not defined here; αMeS = C[C@](N)(CO)C(=O)O; Aib = CC(C)(N)C(=O)O
Readings of cAMP release, % activity with respect to control, at 10 µM for the listed binders

# count of solved cases: 2
1) VHSEGTFTSD[αMeBip(OMe)][hhPhe] (not fully specified (C-terminus); printed as VHSEGTFTSD-(αMe-Bip(OMe))-(APPA)) [Seq. ID. No. 11]    99 % of control
2) VHAQGT[αMePhe(2,6-F2)]TSD[αMeBip(OMe)][hhPhe]-NH2 [Seq. ID. No. 26]    99 % of control

Req: So what's the measured cAMP release, % activity with respect to control, at 10 µM for this one? VVH[αMeP]EGT[αMePhe(2,6-F2)]TSD[αMeBip(OMe)][hhPhe]-NH2 [Seq. ID. No. 228]
Resp: 99 % of control

Req: So what's the measured cAMP release, % activity with respect to control, at 10 µM for this one? VH[αMeP]EGT[αMePhe(2-F)]T[αMeS]D[αMeBip(OMe)][αMeAPPA] (not fully specified (C-terminus); reading uncertain) [Seq. ID. No. 172]
Resp: 99 % of control

Req: So what's the measured cAMP release, % activity with respect to control, at 10 µM for this one? VH[αMeP]EGTFTS[αMeD][αMeBip(OMe)][hhPhe]-NH2 [Seq. ID. No. 64]
Resp: 99 % of control

Req: So what's the measured cAMP release, % activity with respect to control, at 10 µM for this one? VHAQGT[αMePhe(2-F)]TSD[αMeBip(OMe)][αMeAPPA] (not fully specified (C-terminus); printed as VHAQGT-(αMe-2FPhe)-TSD-(αMe-Bip(OMe))-(αMe-APPA); reading uncertain) [Seq. ID. No. 142]
Resp: 99 % of control

Req: So what's the measured cAMP release, % activity with respect to control, at 10 µM for this one? VH[Aib]EGT[αMePhe(2,6-F2)]T[αMeS][αMeD][Bip(2'-Et-4'-OMe)][αMeAPPA] (not fully specified (C-terminus); reading uncertain) [Seq. ID. No. 129]
Resp: 99 % of control

Req: So what's the measured cAMP release, % activity with respect to control, at 10 µM for this one? VHAQGT[αMePhe(2,6-F2)]T[αMeS][αMeD][Bip(2'-Et-4'-OMe)][αMeAPPA] (not fully specified (C-terminus); reading uncertain) [Seq. ID. No. 124]
Resp: 99 % of control

Req: So what's the measured cAMP release, % activity with respect to control, at 10 µM for this one? VH[Aib]EGTFTSD[αMeBip(OMe)][αMeAPPA] (not fully specified (C-terminus); printed as VH-Aib-EGTFTSD-(αMe-Bip(OMe))-(αMe-APPA); reading uncertain) [Seq. ID. No. 139]
Resp: 99 % of control
